- TEST_NAME: NCI Yeast Anticancer Drug Screen. Data for the mlh1 rad18 strain (AID 175)
- CONDITION_DETAILS: S. cerevisiae mlh1 rad18 strain growth inhibition; at 50.0 µM; stronger effect = higher value
Compounds without any hit were thinned out: in the full panel of roughly 79,000, 15% have a hit.
Attribute: growth inhibition
Respond numerically; units are % and should not be typed.

COc1cc(OC)c(C(=O)/C=C/c2ccncc2)cc1C(=O)O :: -5.85

Next up:
Lookup result for C=CCc1ccc(OC(=O)CC)c(OC)c1 ; measured growth inhibition: -9.95

###

- TEST_NAME: NCI Yeast Anticancer Drug Screen. Data for the sgs1 mgt1 strain (AID 161);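 note: 0% = growth of cultures given vehicle only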
- CONDITION_DETAILS: S. cerevisiae sgs1 mgt1 strain, at 50.0 µM, stronger effect = higher value
The panel holds about 79,000 compounds, 15% with a hit somewhere; the sample as a whole holds those more often.
MEASURE: growth inhibition (%)
Respond numerically; units are % and should not be typed.

CN1C(=O)N/C(=C\c2ccc(S(=O)(=O)N/N=C/c3ccccc3)cc2)C1=O :: 20.1
CCO/N=C(/N)c1ncn(Cc2ccccc2)c1NCC(OCC)OCC :: -4.2
COc1cc2c(cc1OC)C(c1ccccc1)ON(C)CC2 (centres undefined) :: -3.35
O=C(Nc1ccc(Cl)c(C(F)(F)F)c1)C(=O)c1c(O)c2ccccc2oc1=O :: -11.7
CCCCCCC(=O)/C=C/c1ccccc1OC :: -3.55
COc1ccccc1NC(=O)Cc1nc(=O)[nH]c(=O)[nH]1 :: 3.5
Cc1c(-c2ccccc2)cc(O)c2nc3ccccc3n12 :: -16.6
CN(C)C(=O)C1Cc2ccccc2CC1C(=O)N(C)C (centres undefined) :: 0.85
N#Cc1ccc(NN=NCCCCCCl)cc1 :: 1.25
N#Cc1nc(-c2cc([N+](=O)[O-])cc([N+](=O)[O-])c2)oc1N :: -4.7

Lookup result for CC(C)CNC(=S)N/N=C/c1ccc(C(C)C)cc1 ; measured growth inhibition: -8.4

Lookup result for CC(=O)CC(=O)Nc1cccc(C)n1 ; measured growth inhibition: -14.3

Lookup result for CC(=O)CC(=O)CCCCCCCCCCCC(=O)CC(C)=O ; measured growth inhibition: -5.45

Lookup result for CC(C)(O)c1cccc(I)c1 ; measured growth inhibition: -21.1

Lookup result for C#Cc1c(C)c(/C=C/C(C)=C/C=C/C(C)=C/C(=O)OC)n(C)c1C ; measured growth inhibition: 20.3

Lookup result for O=C1OC(c2cccc(Cl)c2)=N/C1=C\c1cc(Br)ccc1O ; measured growth inhibition: 27.8

###

Attribute: growth inhibition
- TEST_NAME: NCI Yeast Anticancer Drug Screen. Data for the mlh1 rad18 strain (AID 175)
- CONDITION_DETAILS: S. cerevisiae mlh1 rad18 strain growth inhibition; at 50.0 µM; stronger effect = higher value
Compounds without any hit were thinned out: in the full panel of roughly 79,000, 15% have a hit.
Respond numerically; units are % and should not be typed.

As a guide, the following entries are already answered.
O=C1C=CC(CCCCCn2ccc(=O)[nH]c2=O)C(=O)N1 (stereo not given) :: -0.25
CNCCN(C)Cc1ccccc1 :: -8.3
Cc1cccc(C(=O)c2ccccc2)c1C(=O)O :: 2.15
COc1ccc(C(CN(C)C(C)C)OC(=O)C(c2ccccc2)c2ccccc2)cc1OC (stereo not given) :: -17.5
O=C1C2CCCCC2C(=O)N1O (stereo not given) :: 9.25
O=C1ON=C(c2ccccc2)/C1=C\C=C\c1ccccc1 :: 14.5
Cn1c(C(=O)NN)cc2cc(OCc3ccccc3)ccc21 :: 2.4
C(=C/c1ccccn1)/c1ccccc1 :: 11.1

Next up:
Lookup result for CC(C)C(O)C(C)N (stereo not given) ; measured growth inhibition: 3.5
